Test system: C. difficile
procedure text: microbe, parasite or virus in culture
Type: cell-based, Clostridium difficile
outcome measure: MIC Mode (µg/mL)
Reply with just the number (in µg/mL).

C=C1NC(=O)[C@H](Cc2c[nH]c3ccccc23)NC(=O)[C@H](NC(=O)[C@H](CCCCN)NC(=O)[C@@H](N)[C@@H](C)CC)CSC[C@@H](C(=O)N[C@H]2C(=O)N3CCC[C@H]3C(=O)NCC(=O)N[C@H](C(=O)N[C@@H](C)C(=O)N[C@@H](CC(N)=O)C(=O)N/C(=C\C)C(=O)NCC(=O)N[C@@H]3CSC[C@@H]4NC(=O)[C@H](Cc5ccc(O)cc5)NC(=O)[C@@H](CS/C=C\NC4=O)NC(=O)[C@H](CC(N)=O)NC(=O)[C@H](Cc4ccccc4)NC3=O)CS[C@H]2C)NC(=O)[C@H](CC(C)C)NC1=O
0.5

Next compound, MIC Mode to be filled in.
Query: Return MIC Mode measured with C. difficile given this compound: C=C1NC(=O)[C@H](Cc2c[nH]c3ccccc23)NC(=O)[C@H](NC(=O)[C@H](CCCCN)NC(=O)[C@@H](N)[C@@H](C)CC)CSC[C@@H](C(=O)N[C@H]2C(=O)N3CCC[C@H]3C(=O)NCC(=O)N[C@H](C(=O)N[C@@H](C)C(=O)N[C@@H](C)C(=O)N/C(=C\C)C(=O)NCC(=O)N[C@@H]3CSC[C@@H]4NC(=O)[C@H](Cc5ccc(O)cc5)NC(=O)[C@@H](CS/C=C\NC4=O)NC(=O)[C@H](CC(N)=O)NC(=O)[C@H](Cc4ccccc4)NC3=O)CS[C@H]2C)NC(=O)[C@H](CC(C)C)NC1=O
Response: 0.25
